target: Histamine H4 receptor (Homo sapiens); assay: Displacement of [3H]histamine from human recombinant histamine H4 receptor expressed in CHO cell membranes after 1 hrs by liquid scintillation counting analysis
Sequence (Q9H3N8 whole entry): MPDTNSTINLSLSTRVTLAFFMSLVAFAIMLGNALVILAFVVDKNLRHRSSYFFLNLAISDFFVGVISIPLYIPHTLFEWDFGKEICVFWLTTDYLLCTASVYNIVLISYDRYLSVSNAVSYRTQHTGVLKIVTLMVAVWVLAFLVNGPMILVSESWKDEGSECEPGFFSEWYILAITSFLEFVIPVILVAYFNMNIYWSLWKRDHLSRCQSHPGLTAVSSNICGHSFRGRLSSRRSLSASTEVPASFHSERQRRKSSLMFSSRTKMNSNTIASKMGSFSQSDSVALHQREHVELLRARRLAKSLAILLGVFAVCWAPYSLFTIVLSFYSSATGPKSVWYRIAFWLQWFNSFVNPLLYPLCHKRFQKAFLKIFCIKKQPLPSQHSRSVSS
Below: a set of entries, each annotated with reported Ki.
Give just the numeric value; nM need not be written.

Below: 2 compounds and their reported Ki.
| Given smiles | Assayed target | Value measured |
| --- | --- | --- |
| N=C(N)N(CCCCN1CCN(CCCCCCCOc2ccccc2)CC1)Cc1ccccc1 | Histamine H4 receptor (Homo sapiens) | 3240 |
| N=C(N)N(CCCCN1CCN(CCCCCCCOc2ccccc2)CC1)Cc1ccc([N+](=O)[O-])cc1 | Histamine H4 receptor (Homo sapiens) | 1200 |

# ---- query compound ----
Given N=C(N)N(CCCCN1CCN(CCCCCCCOc2ccccc2)CC1)Cc1ccc(Cl)cc1 , state its recorded Ki. 1070
